Molecular target: full-length human HuR protein (Homo sapiens, UniProt Q15717)
Construct: full-length human HuR protein was produced by the KU COBRE-PSF Protein Purification Group; made in house
Sequence (Q15717 whole entry): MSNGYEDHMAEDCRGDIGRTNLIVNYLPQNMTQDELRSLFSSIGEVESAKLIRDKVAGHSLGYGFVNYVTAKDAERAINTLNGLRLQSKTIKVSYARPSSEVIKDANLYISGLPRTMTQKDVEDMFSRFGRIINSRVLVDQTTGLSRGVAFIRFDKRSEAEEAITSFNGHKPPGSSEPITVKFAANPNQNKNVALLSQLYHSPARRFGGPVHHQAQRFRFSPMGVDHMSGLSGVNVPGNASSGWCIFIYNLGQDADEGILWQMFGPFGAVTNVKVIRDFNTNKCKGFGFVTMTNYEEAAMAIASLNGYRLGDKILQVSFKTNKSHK
Experiment: FP-based binding of fluorescein-labeled RNAs to HuR
Details: 16 nt RNA oligo, FITC-RNA 2 nM; read-out: Kd of HuR binding with fluorescein-labeled target RNA
{Fluorescein} = fluorescein label
Recorded Kd for the following substances
Provide the reading as a plain figure in nM.

Inquiry: What does the data say about its Kd? Entry: XIAP RNA: Fluorescein labeled 16 nt RNA 5′-UAGUUAUUUUUA UGUC-3′-fluorescein (UAGUUAUUUUUAUGUC; RNA, 3' {Fluorescein}, backbone not given here)
Reply text: 3.5

Inquiry: Try the substance Msi1 RNA: Fluorescein labeled 16 nt RNA 5′-GCUUUUAUUUAUUUUG-3′-fluorescein (RNA, 3' {Fluorescein}, backbone not given here)
Reply text: 2

Proceeding to the next substance to report its Kd.
Inquiry: What does the data say about its Kd? Entry: Bcl-2 RNA: Fluorescein labeled 16 nt RNA 5′-AAAAGAUUUAUUUAUU-3′-fluorescein (RNA, 3' {Fluorescein}, backbone not given here)
Reply text: 6.3
